Biological target: IL-6 (UniProt P05231 30-212)
Sequence (P05231 30-212): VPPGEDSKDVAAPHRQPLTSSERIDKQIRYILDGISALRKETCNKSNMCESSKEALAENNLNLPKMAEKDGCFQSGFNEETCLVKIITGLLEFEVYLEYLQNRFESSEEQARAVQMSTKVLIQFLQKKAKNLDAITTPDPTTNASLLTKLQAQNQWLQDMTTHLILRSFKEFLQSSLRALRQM
Test: SPR
MEASURED_METRIC: binding signal (%Rmax)
Numbers only; they are read as %Rmax.

Using the record for IL-6 Unfunctionalized-1 (ssDNA) DNA: CTCGGATGAACCTGGACTTTATTGCACTGGCTGTACTTTTCGTATCCATGGTCATCTTTTCTAGCATCGAAGCCAAGATTC , state its measured binding signal.
4

Supply reported binding signal belonging to this binder: IL-6 Unfunctionalized-3 (ssDNA) DNA: CTCGGATGAACCTGGACTCTGTTTTTACTACCGCGCTAGCCGCCTCATCCGTTTTAGCGCCATGCATCGAAGCCAAGATTC
3

Find the measured binding signal of IL-6 Unfunctionalized-2 (ssDNA) DNA: CTCGGATGAACCTGGACTTTACTGCGGCGCCAGCCGTGCCCATCCTTTCTTCATCCGTGCCCAGCATCGAAGCCAAGATTC and report it.
3

Read the entry IL-6 Unfunctionalized-5 (ssDNA) DNA: CTCGGATGAACCTGGACTTCTTCATTGCGCTGGTGCCTGCCATCCTTGTTCCATCCCCTTTGCGCATCGAAGCCAAGATTC and write its reported binding signal.
4

Give the measured binding signal for IL-6 Unfunctionalized-4 (ssDNA) DNA: CTCGGATGAACCTGGACTTAATGATGCTCATGGTGCTCTTCATCACCATCTTCGTTCCATCCTGCATCGAAGCCAAGATTC
4
